Exercise: state measured cell viability (log2) for each of the molecules provided.
test system: A673/TR/shEF; assay: cell viability (LOESS-normalised, relative to median of negative controls) (log2 ratio); higher = more viable cells (less compound effect), active = hit call of the paper (over 3 MAD below the median); conditions: 0.926 µM; library screen: screen3; EWS-FLI1 expression: high (no doxycycline); treatment time: 72 h
Screen size: about 3,200 compounds; about 300 (9.4%) showed activity. The sample as a whole holds a higher share of actives than the screen did.

{"MOLECULE": "CCC(C)[C@H]1O[C@]2(CC[C@@H]1C)CC1C[C@@H](C/C=C(\\C)[C@@H](O[C@H]3C[C@H](OC)[C@@H](OC4C[C@H](OC)[C@@H](O)[C@H](C)O4)[C@H](C)O3)[C@@H](C)/C=C/C=C3\\CO[C@@H]4[C@H](O)C(C)=C[C@@H](C(=O)O1)[C@]34O)O2.CO[C@H]1CC(O[C@H]2[C@H](C)O[C@@H](O[C@@H]3/C(C)=C/C[C@@H]4CC(C[C@]5(CC[C@H](C)[C@@H](C(C)C)O5)O4)OC(=O)[C@@H]4C=C(C)[C@@H](O)[C@H]5OC/C(=C\\C=C\\[C@@H]3C)[C@]54O)C[C@@H]2OC)O[C@@H](C)[C@@H]1O (stereo not given in full)", "METRIC": "cell viability (log2)", "RESULT": "-0.0851 (inactive)"}
{"MOLECULE": "Cc1cc(Nc2cc(CN3CCOCC3)c3nc(C)c(Cc4ccc(Cl)cc4F)n3n2)n[nH]1", "METRIC": "cell viability (log2)", "RESULT": "-0.0578 (inactive)"}
{"MOLECULE": "OCC1OC(O)C(O)C(O)C1O (stereo not given)", "METRIC": "cell viability (log2)", "RESULT": "0.0635 (inactive)"}
{"MOLECULE": "CN(Cc1cnc2nc(N)nc(N)c2n1)c1ccc(C(=O)N[C@@H](CCC(=O)O)C(=O)O)cc1", "METRIC": "cell viability (log2)", "RESULT": "-0.53 (active)"}

--- query ---
Problem: Which cell viability (log2) reading was recorded for the molecule C[C@@H](O)[C@H]1C(=O)N2C(C(=O)[O-])=C(SC3Cn4cnc[n+]4C3)[C@H](C)[C@H]12 (stereo not given in full) ?
Result: 0.0657 (inactive)

----------
system: A673/TR/shEF; test: cell viability (LOESS-normalised, relative to median of negative controls) (log2 ratio); higher = more viable cells (less compound effect), active = hit call of the paper (over 3 MAD below the median); settings: 0.25 µM; library screen: screen2; EWS-FLI1 expression: low (doxycycline-induced shRNA knockdown); treatment time: 72 h
Hit rate of the full screen: of about 3,200 compounds, about 300 (9.4%) showed activity. What follows is part of a selection rich in actives, with near analogues and random picks from the rest.
Consider the cut-off 0.08. If the recorded cell viability (log2) is strictly smaller, the label is t; if not, the label is f.

Before answering, review these 6 worked examples.
{"COMPOUND": "Nc1ccc2c3c(cccc13)C(=O)NC2=O", "CLASS_ASSIGNMENT": "t"}
{"COMPOUND": "CCC(=O)NCC1OC(n2cnc3c(NCc4ccccc4)ncnc32)C(O)C1O (stereo not drawn)", "CLASS_ASSIGNMENT": "t"}
{"COMPOUND": "CCCCCCCCCCCCCCC[C@H](O)[C@H](N)CO", "CLASS_ASSIGNMENT": "f"}
{"COMPOUND": "Cc1cccc(C)c1NC(=O)C[N+](C)(C)C", "CLASS_ASSIGNMENT": "f"}
{"COMPOUND": "CCN(CC)CC(=O)Nc1c(C)cccc1C", "CLASS_ASSIGNMENT": "f"}
{"COMPOUND": "CCCCCCCC/C=C/CCCCCCCC(=O)OC(CO)COC(=O)CCCCCCCCCCCCCCC (stereo not drawn)", "CLASS_ASSIGNMENT": "f"}

# input for lookup
Problem: Does the reported cell viability (log2) of the following compound sit strictly below 0.08? NCCCCNS(=O)(=O)c1cccc2c(Cl)cccc12
Result: t
